Assay: qHTS assay to identify small molecule antagonists of the estrogen related receptor (ERR) signaling pathway (AID 1224819; further: nearly all actives have a fitted effect of over 50% in size)
Conditions: ERR reporter cell line, luciferase inhibition; series mostly up to 46.1 µM
Method: National Center for Advancing Translational Sciences [NCATS] NIH Chemical Genomics Center [NCGC] U.S. Environmental Protection Agency [EPA] National Institutes of Environmental Health Sciences [NIEHS] National Toxicology Program [NTP] […] The ERR cells were dispensed at 2,000 cells/5 ul/well in 1536-well white plates using a Multidrop dispenser. […] After 30 min incubation at room temperature, the luminescence intensity in the plates was measured using a ViewLux plate reader.
Results filed as inconclusive are left out. The source made the active and inactive calls. The call rests on the fitted dose curve; in most records, active means well fitted inhibition curve with a large enough effect in the repeat runs; inconclusive means weak or mixed curves; inactive means no such curve, though single readings can be large or run the other way.
Possible outcomes: T for active, F for inactive

[
  {
    "Molecule": "C#CC(N)CCC(=O)O (stereo not given)",
    "Classification": "F"
  },
  {
    "Molecule": "CNCCC=C1c2ccccc2CCc2ccccc21",
    "Classification": "F"
  },
  {
    "Molecule": "Nc1ccc(N2C(=O)c3ccccc3C2=O)c(Cl)c1",
    "Classification": "F"
  },
  {
    "Molecule": "C=C1C(=O)O[C@@H]2[C@H]3O[C@]3(C)CCC=C(C)CC[C@@H]12",
    "Classification": "F"
  },
  {
    "Molecule": "N[C@@H](Cc1ccc(O)c(O)c1)C(=O)O",
    "Classification": "F"
  },
  {
    "Molecule": "CC1C(=O)N(C)C(=O)c2nc[nH]c21 (stereo not given)",
    "Classification": "F"
  },
  {
    "Molecule": "C[N+]1(CCCCC[N+]2(C)CCCC2)CCCC1",
    "Classification": "F"
  },
  {
    "Molecule": "NCCCCCCCCCCN",
    "Classification": "F"
  },
  {
    "Molecule": "CC(C)Cc1ccc([C@H](C)C(=O)O)cc1",
    "Classification": "F"
  },
  {
    "Molecule": "COc1cc(SC)ccc1C(=O)N1CCC(Cc2ccccc2)CC1",
    "Classification": "T"
  },
  {
    "Molecule": "O=C(O)c1cc([N+](=O)[O-])ccc1NCCCc1ccccc1",
    "Classification": "F"
  },
  {
    "Molecule": "CCNC(=O)[C@H]1O[C@@H](n2cnc3c(N)nc(NCCc4ccc(CCC(=O)O)cc4)nc32)[C@H](O)C1O (stereo not given in full)",
    "Classification": "F"
  },
  {
    "Molecule": "Cc1cc(NC(=O)Nc2ccc3c(ccn3C)c2)sn1",
    "Classification": "F"
  },
  {
    "Molecule": "NC(N)=NC(=O)c1nc(Cl)c(N2CCCCCC2)nc1N",
    "Classification": "T"
  },
  {
    "Molecule": "CC(C)(C)c1onc(OCP(=O)(O)O)c1CC(N)C(=O)O (stereo not given)",
    "Classification": "F"
  },
  {
    "Molecule": "COc1ccc2c(c1)CCC1C2CC[C@@]2(C)C1CC[C@@H]2NCCCCCCN1C(=O)CCC1=O (stereo not given in full)",
    "Classification": "F"
  },
  {
    "Molecule": "COc1ccc(C(=O)/C(Cc2cc(OC)c(OC)c(OC)c2)=C(\\C(=O)O)c2ccc3c(c2)OCO3)cc1",
    "Classification": "T"
  },
  {
    "Molecule": "COc1cc(/C=C(\\C#N)C(=O)c2ccc(O)c(O)c2)cc(I)c1O",
    "Classification": "F"
  },
  {
    "Molecule": "N[C@@H](Cc1cnc[nH]1)C(=O)O",
    "Classification": "F"
  },
  {
    "Molecule": "O=C1NC(=O)/C(=C/c2ccc(-c3ccc(F)cc3O)o2)S1",
    "Classification": "F"
  },
  {
    "Molecule": "CN(C)c1ccc(/C=C2\\C(=O)Nc3ccccc32)cc1",
    "Classification": "F"
  },
  {
    "Molecule": "C[C@@H](c1ncncc1F)[C@](O)(Cn1cncn1)c1ccc(F)cc1F",
    "Classification": "F"
  },
  {
    "Molecule": "COc1cc(N)c(Cl)cc1C(=O)OCCN1CCCCC1",
    "Classification": "F"
  },
  {
    "Molecule": "Oc1cc2c(c(Cl)c1O)CCNCC2c1ccccc1 (stereo not given)",
    "Classification": "T"
  },
  {
    "Molecule": "CN(C)C(=O)/N=N/C(=O)N(C)C",
    "Classification": "F"
  }
]
